TARGET: 5-HT2A receptor (Homo sapiens, UniProt P28223)
Sequence (P28223 whole entry): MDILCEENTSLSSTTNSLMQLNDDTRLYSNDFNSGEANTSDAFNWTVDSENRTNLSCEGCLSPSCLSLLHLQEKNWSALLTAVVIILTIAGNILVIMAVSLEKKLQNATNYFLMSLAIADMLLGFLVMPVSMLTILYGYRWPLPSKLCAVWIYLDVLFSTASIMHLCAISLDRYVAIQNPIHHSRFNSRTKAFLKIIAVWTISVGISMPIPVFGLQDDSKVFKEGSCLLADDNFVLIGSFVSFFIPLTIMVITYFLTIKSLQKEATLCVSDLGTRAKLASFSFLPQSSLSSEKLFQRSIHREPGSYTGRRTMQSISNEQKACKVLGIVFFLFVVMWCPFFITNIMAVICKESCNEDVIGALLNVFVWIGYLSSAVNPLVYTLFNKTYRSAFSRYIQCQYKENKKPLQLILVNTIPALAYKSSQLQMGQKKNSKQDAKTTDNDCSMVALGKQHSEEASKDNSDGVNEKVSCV
ASSAY_NAME: Assay for 5-HT2A receptor inverse agonist activity (NIH3T3-5-HT2A R cells, Bright-Glo luciferase, cell inhibition rate)
COND: 5-HT2A inverse agonist activity IC50 (nM), NIH3T3-5HT2A R cells, 120 h, luminescence
ENDPOINT: IC50

CN1CCC(N(Cc2ccc(F)cn2)C(=O)NCc2ccc3occc3c2)CC1 [Compound 57]; 51.9 nM

Which measured IC50 value corresponds to CCN1CC[C@@H](N(Cc2ccc(F)cn2)C(=O)NCc2ccc(OCC(F)(F)F)nc2)[C@@H](F)C1 (single isomer, unassigned) [Compound 69A] ?
> 1000 nM

Repeat with CN1CCC(N(Cc2ccc(F)cn2)C(=O)NCc2ccc(OCC(F)(F)F)nc2)CC1 [Compound 5]
13.1 nM

Repeat with CN1CCC(N(Cc2ccc(F)cc2)C(=O)NCc2ccc(OCC(F)(F)F)nc2)C2(CC2)C1 (single isomer, unassigned) [Compound 83B]
211 nM

Repeat with CC(C)N1CC[C@@H](N(Cc2ccc(F)cn2)C(=O)NCc2ccc(OCC(F)(F)F)nc2)[C@@H](F)C1 (single isomer, unassigned) [Compound 70A]
> 1000 nM

Repeat with CN1CCC(N(Cc2ccc(F)cn2)C(=O)NCc2ccc(OCC(F)(F)F)nc2)C(C)(C)C1 (single isomer, unassigned) [Compound 49B]
> 1000 nM

* * *

TARGET: 5-HT2A receptor (Homo sapiens, UniProt P28223)
ASSAY_NAME: Assay for 5-HT2A receptor inverse agonist activity (NIH3T3-5-HT2A R cells, Bright-Glo luciferase, cell inhibition rate)
# key: entry, value: log10(IC50)
Please note: log10 values; quantity IC50; unit µM.

Some solved entries appear below for comparison.
CN1CCC(N(Cc2ccc(F)cn2)C(=O)NCc2ccc3nc[nH]c3c2)CC1; -0.17
Cc1cc(CN(C(=O)NCc2ccc(OCC(F)(F)F)nc2)[C@H]2CCN(C)C[C@H]2F)nn1C [Compound 82B]; -0.18
CN1C2CCC1CC(N(Cc1ccc(F)cn1)C(=O)NCc1ccc(OCC(F)(F)F)nc1)C2 (centres unmarked); -0.11
CN1CCC(N(Cc2ccc(F)cn2)C(=O)NCc2ccc3c(c2)c(F)cn3C)CC1; -0.74
CN1CCC(N(Cc2ccc(F)cn2)C(=O)NCc2ccc3sccc3c2)CC1; -1.39
CN1CCC(N(Cc2ccc(F)cn2)C(=O)NCc2cnc(OC3CC(F)(F)C3)c(F)c2)CC1; -1.48

Which measured log10(IC50) value corresponds to CN1CCC(N(Cc2ccc(F)cn2)C(=O)NCc2ccc3c(c2)CCC3)CC1 ?
-1.19

Repeat with CN1CC[C@H](N(Cc2ccc(F)cn2)C(=O)NCc2ccc(OCC(F)(F)F)nc2)[C@@H](F)C1
-1.64

Repeat with CN1CCC(N(Cc2ccc(F)cn2)C(=O)NCc2ccc(OCC3CC3)cn2)CC1
-0.83

* * *

TARGET: 5-HT2A receptor (Homo sapiens, UniProt P28223)
ASSAY_NAME: Assay for 5-HT2A receptor inverse agonist activity (NIH3T3-5-HT2A R cells, Bright-Glo luciferase, cell inhibition rate)
COND: 5-HT2A inverse agonist activity IC50 (nM), NIH3T3-5HT2A R cells, 120 h, luminescence
# key: entry, value: IC50
Use nM as the unit, but write only the number.

CN1CCC(N(Cc2ccc(F)cn2)C(=O)NCc2ccc(OCC(F)(F)F)nc2)C2(CC2)C1 (single isomer, unassigned) [Compound 50A]; 2.6
CN1CCC(N(Cc2ccc(F)cc2)C(=O)NCc2ccc(OCC(F)(F)F)nc2)C2(CC2)C1 (single isomer, unassigned) [Compound 83A]; 10.4

Which measured IC50 value corresponds to CN1CCC(N(Cc2ccc(F)cn2)C(=O)NCc2ccc(OCC(F)(F)F)cn2)CC1 ?
152

* * *

# key: entry, value: Remaining amount% at 60 min
ASSAY_NAME: In-vitro liver microsomal stability (human)
Format: in vitro ADME
COND: Human liver microsomes, 1 µM, 0.5 mg/mL, NADPH
Use % as the unit, but write only the number.

Some solved entries appear below for comparison.
CN1CCC(N(Cc2ccc(F)cn2)C(=O)NCc2ccc(OCC(F)(F)F)nc2)CC1 [Compound 5]; 99.9
CN1CCC(N(Cc2ccc(F)cn2)C(=O)NCc2cnc(OC3CC(F)(F)C3)c(F)c2)CC1 [Compound 19]; 72.49
CN1CCC(N(Cc2ccc(F)cn2)C(=O)NCc2ccc(OCC(F)(F)F)nc2)C2(CC2)C1 (single isomer, unassigned) [Compound 50A]; 89.7
CN1CCC(N(Cc2ccc(F)cn2)C(=O)NCc2ccc3[nH]ccc3c2)CC1 [Compound 9]; 93.1
CC(C)COc1ccc(CNC(=O)N(Cc2ccc(F)cc2)C2CCN(C)CC2)cc1 [Pimavanserin, reference compound]; 70.7

Which measured Remaining amount% at 60 min value corresponds to CN1CC[C@@H](N(Cc2ccc(F)cn2)C(=O)NCc2ccc(OCC(F)(F)F)nc2)[C@H](F)C1 [Compound 67] ?
66.2

Repeat with CN1CCC(N(Cc2ccc(F)cn2)C(=O)NCc2ccc(OCC(F)(F)F)cn2)CC1 [Compound 1]
85.7

Repeat with CN1CCC(N(Cc2ccc(F)cn2)C(=O)NCc2cnc(OCC(F)(F)F)c(Br)c2)CC1 [Compound 28]
38.94

Repeat with CN1CC[C@H](N(Cc2ccc(F)cn2)C(=O)NCc2ccc(OCC(F)(F)F)nc2)[C@@H](F)C1 [Compound 66]
73.7

Repeat with CN1CCC(N(Cc2ccc(F)cn2)C(=O)NCc2cnc(OCC(F)(F)F)c(Cl)c2)CC1 [Compound 27]
50.93

* * *

ASSAY_NAME: In-vitro liver microsomal stability (rat)
Assay type: in vitro ADME
COND: Rat liver microsomes, 1 µM, 0.5 mg/mL, NADPH
ENDPOINT: Remaining amount% at 60 min (%)
Use % as the unit, but write only the number.

CN1CCC(N(Cc2ccc(F)cn2)C(=O)NCc2cnc(OCC(F)(F)F)c(Cl)c2)CC1; 63.98
CN1CCC(N(Cc2ccc(F)cn2)C(=O)NCc2ccc(OCC(F)(F)F)nc2)C2(CC2)C1 (single isomer, unassigned) [Compound 50A]; 58.8
CN1CCC(N(Cc2ccc(F)cn2)C(=O)NCc2ccc3c(ccn3C)c2)CC1; 69.21

Which measured Remaining amount% at 60 min value corresponds to CN1CCC(N(Cc2ccc(F)cn2)C(=O)NCc2cnc(OCC(F)(F)F)c(Br)c2)CC1 ?
54.78

* * *

TARGET: 5-HT2A receptor (Homo sapiens)
ASSAY_NAME: Assay for 5-HT2A receptor inverse agonist activity (NIH3T3-5-HT2A R cells, Bright-Glo luciferase, cell inhibition rate)
# key: entry, value: IC50
Use nM as the unit, but write only the number.

Some solved entries appear below for comparison.
CN1CCC(N(Cc2ccc(F)cn2)C(=O)NCc2ccc3c(c2)C=CC3)CC1; 86.1
CN1CCC(N(Cc2ccc(F)cn2)C(=O)NCc2ccc(OC3CC3)cn2)CC1; 72.8
CN1CCC(N(Cc2ccc(F)cn2)C(=O)NCc2ccc3ccccc3c2)CC1; 79.2
CN1CC[C@H](N(Cc2ccc(F)cc2)C(=O)NCc2ccc3ncccc3c2)[C@H](F)C1 [Compound 86B]; 36.8

Let us examine a further case.
Which measured IC50 value corresponds to CN1CCC(N(Cc2ccc(F)cn2)C(=O)NCc2ccc3c(ccn3C)c2)CC1 ?
163

* * *

ASSAY_NAME: In-vitro liver microsomal stability (dog)
Format: in vitro ADME
COND: Dog liver microsomes, 1 µM, 0.5 mg/mL, NADPH
# key: entry, value: Remaining amount% at 60 min
Use % as the unit, but write only the number.

Some solved entries appear below for comparison.
CN1CCC(N(Cc2ccc(F)cn2)C(=O)NCc2cnc(OC3CC(F)(F)C3)c(F)c2)CC1; 78.39
CN1CCC(N(Cc2ccc(F)cn2)C(=O)NCc2ccc(OCC3CC3)cn2)CC1; 100.0
CN1CC[C@H](N(Cc2ccc(F)cn2)C(=O)NCc2ccc(OCC(F)(F)F)nc2)[C@@H](F)C1; 85.1

Let us examine a further case.
Which measured Remaining amount% at 60 min value corresponds to CN1CCC(N(Cc2ccc(F)cn2)C(=O)NCc2ccc(OCC(F)(F)F)cn2)CC1 ?
88.7

* * *

ASSAY_NAME: In-vitro liver microsomal stability (dog)
Type: in vitro ADME
COND: Dog liver microsomes, 1 µM, 0.5 mg/mL, NADPH
I'd appreciate it if you marked entries condition met when Remaining amount% at 60 min is lower than 60% and condition not met when it is not.

CN1CCC(N(Cc2ccc(F)cn2)C(=O)NCc2ccc(OC3CC3)cn2)CC1; condition not met
CN1CCC(N(Cc2ccc(F)cn2)C(=O)NCc2ccc(OC3CC(F)(F)C3)nc2)CC1; condition not met
CN1CCC(N(Cc2ccc(F)cn2)C(=O)NCc2ccc3[nH]ccc3c2)CC1; condition met
CN1CC[C@@H](N(Cc2ccc(F)cn2)C(=O)NCc2ccc(OCC(F)(F)F)nc2)[C@H](F)C1; condition not met
CC(C)COc1ccc(CNC(=O)N(Cc2ccc(F)cc2)C2CCN(C)CC2)cc1 [Pimavanserin, reference compound]; condition not met

Problem: For the compound CN1CCC(N(Cc2ccc(F)cn2)C(=O)NCc2ccc(OCC(F)(F)F)nc2)C(F)(F)C1 (single isomer, unassigned) [Compound 46A] , is Remaining amount% at 60 min under 60%?
condition met

Repeat with CN1CCC(N(Cc2ccc(F)cn2)C(=O)NCc2ccc(OCC(F)(F)F)nc2)CC1
condition not met
